Ref: the RNAGym collection of RNA variant scans (doi:10.1073/pnas.2313332121)

B1: TPR t1 (parent)
chain: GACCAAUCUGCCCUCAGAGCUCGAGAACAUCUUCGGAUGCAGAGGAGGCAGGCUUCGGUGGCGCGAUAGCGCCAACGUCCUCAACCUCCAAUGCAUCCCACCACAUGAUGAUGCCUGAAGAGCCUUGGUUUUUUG

variants of: B1; experiment: polymerase ribozyme fitness, log enrichment relative to wild type (log ratio); higher = more active; in vitro selection for triplet polymerase activity
Below, each of the variants is paired with its reported polymerase ribozyme fitness (log ratio) value.

Check out these entries, answers already filled in.
G17U G48U C115G G120A
-1.53
U30C G69A
-4.88
U9A C12A G42U A46G C53G C70U U132A
-2.02

Now, please, on to the next variant.
Query: Entry A2U U32C G48A C49G C64U : reported polymerase ribozyme fitness (log ratio) = ?
Reply: -3.23
